Data provenance: ChEMBL document CHEMBL4004781

- Tested on: Rattus norvegicus
- protocol.summary: Antiinflammatory activity in albino rat assessed as inhibition of carrageenan-induced paw edema at 28 umol/kg, ip administered 1 hr post carrageenan challenge measured at 3 hrs post compound dosing relative to control
- Assay type: functional
experimental.readout: inhibition in vivo at 28 µmol/kg (%)

[[record]]
compound = "Cc1c(C(=O)NCCc2ccccc2)nc2ccc(Cl)cc2c1O"
study_system = "Rattus norvegicus"
quantity_unit = "%"
observed_measurement = 40.9

[[record]]
compound = "Cc1c(C(=O)NCc2nc3ccccc3[nH]2)nc2ccc(Cl)cc2c1O"
study_system = "Rattus norvegicus"
quantity_unit = "%"
observed_measurement = 50.1

[[record]]
compound = "Cc1c(C(=O)NC(CO)Cc2ccccc2)nc2ccc(Cl)cc2c1O (centres undefined)"
study_system = "Rattus norvegicus"
quantity_unit = "%"
observed_measurement = 39.5

[[record]]
compound = "Cc1c(C(=O)NC2CCCCC2)nc2ccc(Cl)cc2c1O"
study_system = "Rattus norvegicus"
quantity_unit = "%"
observed_measurement = 50.1

